The measurements presented in this section are drawn from PubChem BioAssay (NCATS).

test: Quantitative High-Throughput drug screen in 47 multiple myeloma cell lines against the NCATS MIPE library collection: Karpas620_DSMZ cell viability assay (AID 1918959); conditions: Karpas620 myeloma viability, CellTiter-Glo ATP luminescence, 48 h; series mostly up to 45.8 µM; note: nearly all actives have a fitted effect of over 30% in size
Inconclusive results are not listed. Active and inactive are the calls of the source. Calls come from the whole dose curve; as a rule, active = well fitted cell-killing curve with a large enough effect; inconclusive = small, poorly fitted or top-dose-only effect, or effect the other way; inactive = no such curve, though single readings can be large or run the other way.
Allowed answers: active, inactive

Write down the call the test reported for this compound. Item: `O=C1c2cccc(O)c2C(=O)c2c(O)cc(CO)cc21` inactive

Write down the call the test reported for this compound. Item: `O=C(O)C=Cc1ccc(Cn2ccnc2)cc1` inactive

Write down the call the test reported for this compound. Item: `O=C(C[C@@H]1CC=CCCC(=O)O[C@H](c2ccccc2)CNC1=O)NCc1ccc(Cl)cc1` inactive

Write down the call the test reported for this compound. Item: `C[N+]1(C)[C@@H]2C[C@@H](OC(=O)C(O)(c3cccs3)c3cccs3)C[C@H]1[C@@H]1O[C@@H]12` inactive

Write down the call the test reported for this compound. Item: `C[C@H](NCc1ccc2c(c1)nc(NC(=O)c1ccc(-c3cn[nH]c3)s1)n2CCc1ccccc1)C(C)(C)C` active

----------
Please respond with reported Potency for every item in the list.
assay: Quantitative High-Throughput drug screen in 47 multiple myeloma cell lines against the NCATS MIPE library collection: L363_DSMZ cell viability assay (AID 1918984); conditions: L363 myeloma viability, CellTiter-Glo ATP luminescence, 48 h; series mostly up to 45.8 µM; note: potency is the fitted concentration of half-maximal effect; nearly all actives have a fitted effect of over 40% in size
Results filed as inconclusive are left out. Active and inactive are the calls of the source. Calls follow the shape of the dose curve; as a rule, active = well fitted cell-killing curve with a large enough effect; inconclusive = small, poorly fitted or top-dose-only effect, or effect the other way; inactive = no such curve, though single readings can be large or run the other way.

I have this compound here, `CCNC(=O)Nc1ccc(-c2nc3c(c(N4CCOC[C@H]4C)n2)CCN(C2COC2)C3)cc1` , and I need its recorded Potency. 209 nM (active)

I have this compound here, `CC(=O)NCC(=O)N1[C@H]2CC[C@H]1c1cc(Nc3ncc(C(F)(F)F)c(NC4CCC4)n3)ccc12` , and I need its recorded Potency. 935 nM (active)

I have this compound here, `O=C1NC(=O)[C@@H](c2cn3c4c(cccc24)CCC3)[C@H]1c1c[nH]c2ccccc12` , and I need its recorded Potency. 118 nM (active)

I have this compound here, `COc1ccc(C=Cc2cc(OC)c(OC)c(OC)c2)cc1NC(=O)[C@H](N)CO` , and I need its recorded Potency. 9.3 nM (active)

I have this compound here, `COc1cc(N2CCC(C(N)=O)CC2)ccc1Nc1nc(N)c(Cl)c(Nc2ccccc2S(=O)(=O)C(C)C)n1` , and I need its recorded Potency. 14.8 nM (active)

I have this compound here, `CO[C@@H]1[C@@H](O)[C@H](O)[C@@H](n2c3c(Cl)cccc3c3c4c(c5c6cccc(Cl)c6[nH]c5c32)C(=O)NC4=O)O[C@@H]1CO` , and I need its recorded Potency. 1050 nM (active)

I have this compound here, `COc1cc([C@@H]2c3cc4c(cc3[C@H](O)[C@H]3COC(=O)[C@@H]23)OCO4)cc(OC)c1OC` , and I need its recorded Potency. 66.2 nM (active)

I have this compound here, `CNC(=O)c1cccc(-c2ccc3c(N4CCOC[C@H]4C)nc(N4CCOC[C@H]4C)nc3n2)c1` , and I need its recorded Potency. 11.8 nM (active)

----------
test: Quantitative High-Throughput drug screen in 47 multiple myeloma cell lines against the NCATS MIPE library collection: KMS28BM_JCRB cell viability assay (AID 1919874); conditions: CellTiter-Glo ATP, 48 h; series mostly up to 45.8 µM; note: nearly all actives have a fitted effect of over 35% in size
Results filed as inconclusive are left out. Calls of active or inactive are those of the source. The call rests on the fitted dose curve; in most records, active means well fitted cell-killing curve with a large enough effect; inconclusive means small, poorly fitted or top-dose-only effect, or effect the other way; inactive means no such curve, though single readings can be large or run the other way.
Allowed answers: y for active, n for inactive

Write down the call the test reported for this compound. Item: `CC[C@H](CC[C@@H](C)[C@H]1CC[C@H]2[C@@H]3CC=C4C[C@@H](O)CC[C@]4(C)[C@@H]3CC[C@]12C)C(C)C` n

Write down the call the test reported for this compound. Item: `NC(=O)N1CCC(CC(=O)N2CCC([C@H]3c4ncc(Br)cc4CCc4cc(Cl)cc(Br)c43)CC2)CC1` y

Write down the call the test reported for this compound. Item: `CN[C@@H]1C[C@H]2O[C@@](C)([C@H]1OC)n1c3ccccc3c3c4c(c5c6ccccc6n2c5c31)C(=O)N[C@H]4O` y

Write down the call the test reported for this compound. Item: CCCCCCCCCCCC(CC1OC(=O)C1CCCCCC)OC(=O)C(CC(C)C)NC=O (stereo unspecified) n

Write down the call the test reported for this compound. Item: `CC(=O)NCC(=O)N1[C@H]2CC[C@H]1c1cc(Nc3ncc(C(F)(F)F)c(NC4CCC4)n3)ccc12` y

Write down the call the test reported for this compound. Item: `C[C@H](O)[C@@H]1C(=O)N2C(C(=O)O)=C(S[C@@H]3CN[C@H](CNS(N)(=O)=O)C3)[C@@H](C)[C@@H]12` n

Write down the call the test reported for this compound. Item: `COc1cccc2c1C(=O)c1c(O)c3c(c(O)c1C2=O)C[C@@](O)(C(C)=O)C[C@H]3O[C@H]1C[C@H](N)[C@H](O)[C@H](C)O1` y

Write down the call the test reported for this compound. Item: `C=C1C(=CC=C2CCC[C@]3(C)[C@@H]([C@H](C)CCCC(C)(C)O)CC[C@@H]23)C[C@@H](O)C[C@@H]1O` y

Write down the call the test reported for this compound. Item: `Nc1nc2c(c(=O)[nH]1)N(C=O)[C@H](CNc1ccc(C(=O)N[C@@H](CCC(=O)O)C(=O)O)cc1)CN2` n

Write down the call the test reported for this compound. Item: `C=C(C)[C@@H]1CC[C@]2(C(=O)O)CC[C@]3(C)[C@H](CC[C@@H]4[C@@]5(C)CC[C@H](O)C(C)(C)[C@@H]5CC[C@]43C)[C@@H]12` n

Write down the call the test reported for this compound. Item: `CCN1CCN(C(=O)N[C@H](C(=O)N[C@@H]2C(=O)N3C(C(=O)O)=C(CSc4nnnn4C)CS[C@@H]23)c2ccc(O)cc2)C(=O)C1=O` n

Write down the call the test reported for this compound. Item: `Cc1ccc([N+](=O)[O-])cc1S(=O)(=O)N(C)N=Cc1cnc2ccc(Br)cn12` y

Write down the call the test reported for this compound. Item: COc1cc(C)c(Sc2cnc(NC(=O)c3ccc(CNC(C)C(C)(C)C)cc3)s2)cc1C(=O)N1CCN(C(C)=O)CC1 (stereo unspecified) y

Write down the call the test reported for this compound. Item: `O=C(Nc1ccc(Oc2ccnc3[nH]ccc23)c(F)c1)c1cccn(-c2ccc(F)cc2)c1=O` n

Write down the call the test reported for this compound. Item: `O=C(O)C(=O)Nc1cccc(C2=NN=N[N]2)c1` n

Write down the call the test reported for this compound. Item: `c1coc(CNc2ncnc3nc[nH]c23)c1` n

Write down the call the test reported for this compound. Item: `CON=C(C(=O)N[C@@H]1C(=O)N2C(C(=O)O)=C(Cn3ccc(=N)n3CCO)CS[C@H]12)c1csc(N)n1` n

Write down the call the test reported for this compound. Item: `CCS(=O)(=O)Nc1ccc2[nH]c(O)c(C(=Nc3ccc(CN4CCCCC4)cc3)c3ccccc3)c2c1` y

Write down the call the test reported for this compound. Item: `C[C@H](NCc1ccc(OCc2cccc(F)c2)cc1)C(N)=O` y

Write down the call the test reported for this compound. Item: `CC(C)N(CC[C@H](c1ccccc1)c1cc(CO)ccc1O)C(C)C` y

Write down the call the test reported for this compound. Item: CC(=O)O[C@@]12CO[C@H]1C[C@H](O)[C@@]1(C)C(=O)[C@H](O)C3=C(C)[C@@H](OC(=O)C(O)[C@@H](NC(=O)OC(C)(C)C)c4ccccc4)C[C@@](O)([C@@H](OC(=O)c4ccccc4)[C@@H]21)C3(C)C (stereo partly specified) n

Write down the call the test reported for this compound. Item: Cc1ccccc1C(=O)Nc1ccc(C(=O)N2CCCC(O)c3cc(Cl)ccc32)c(C)c1 (stereo unspecified) n

Write down the call the test reported for this compound. Item: `COc1cc([C@@H]2c3cc4c(cc3[C@@H](O[C@@H]3O[C@@H]5CO[C@@H](c6cccs6)O[C@@H]5[C@H](O)[C@@H]3O)[C@H]3COC(=O)[C@H]23)OCO4)cc(OC)c1O` y

Write down the call the test reported for this compound. Item: `CC(C)Oc1ccc(C(=O)N[C@H](CNC(=O)CN(C)C)Cc2ccc(-c3cn4cccc([C@H](C)O)c4n3)cc2)cc1Cl` y

Write down the call the test reported for this compound. Item: `C[C@]12CC[C@@H]3c4ccc(O)cc4CC[C@H]3[C@H]1CC[C@H]2O` y

Write down the call the test reported for this compound. Item: CN(N=O)C(=O)N[C@H]1C(O)OC(CO)[C@@H](O)[C@H]1O (stereo partly specified) n

Write down the call the test reported for this compound. Item: `C[C@H](NC(=O)C(C#N)=Cc1cccc(Br)n1)c1ccccc1` y

Write down the call the test reported for this compound. Item: `CS[C@H]1SC[C@@H]2C(=O)N(C)[C@H](C(C)C)C(=O)OC[C@H](NC(=O)c3cnc4ccccc4n3)C(=O)N[C@H](C)C(=O)N(C)[C@@H]1C(=O)N(C)[C@H](C(C)C)C(=O)OC[C@H](NC(=O)c1cnc3ccccc3n1)C(=O)N[C@H](C)C(=O)N2C` y

Write down the call the test reported for this compound. Item: `C[C@@]12C(=O)OC(=O)[C@@]1(C)C1CCC2O1` y

Write down the call the test reported for this compound. Item: COc1ccc2c(c1OC)C(=O)OC2[C@H]1c2c(cc3c(c2OC)OCO3)CCN1C (stereo partly specified) y

Write down the call the test reported for this compound. Item: `CC(=O)O[C@]1(C(C)=O)CC[C@H]2[C@@H]3C=C(C)C4=CC(=O)CC[C@]4(C)[C@@H]3CC[C@@]21C` n
